Where do these numbers come from? They come from patent US20230272056A1.

SYSTEM TESTED: T1, human LAP-TGFB1 Fc fusion (human)
T1 construct: also called human LAP-TGFβ1-Fc; human LAP-TGFβ-Fc isoform 1
T1 sequence (chain, as listed by the source limits assumed): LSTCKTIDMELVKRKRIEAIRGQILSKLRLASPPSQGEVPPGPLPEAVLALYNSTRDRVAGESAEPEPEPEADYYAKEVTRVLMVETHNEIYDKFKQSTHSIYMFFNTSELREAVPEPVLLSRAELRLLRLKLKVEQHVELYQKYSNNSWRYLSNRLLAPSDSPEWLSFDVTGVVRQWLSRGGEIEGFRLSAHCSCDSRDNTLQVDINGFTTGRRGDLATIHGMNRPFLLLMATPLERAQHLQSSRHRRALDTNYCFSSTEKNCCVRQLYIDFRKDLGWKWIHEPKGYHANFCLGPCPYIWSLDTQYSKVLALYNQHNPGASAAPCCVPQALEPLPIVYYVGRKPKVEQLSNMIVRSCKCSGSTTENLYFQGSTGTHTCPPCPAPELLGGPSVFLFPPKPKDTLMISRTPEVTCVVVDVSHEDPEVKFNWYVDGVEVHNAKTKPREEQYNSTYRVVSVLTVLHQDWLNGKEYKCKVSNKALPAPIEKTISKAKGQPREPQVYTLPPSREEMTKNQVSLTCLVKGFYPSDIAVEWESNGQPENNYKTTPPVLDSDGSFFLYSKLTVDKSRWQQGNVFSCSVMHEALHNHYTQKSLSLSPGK
ASSAY NAME: SPR pH 7.4, antigen-Fc captured, Fab analyte
Lab note: cut-off is 0.06 nM. Strictly less in Kd is label 1. Exactly 0.06 nM or more is label 0.

Is the reported Kd for 64BLH (Fab, V domains shown, also called 16BLM Fab) VH: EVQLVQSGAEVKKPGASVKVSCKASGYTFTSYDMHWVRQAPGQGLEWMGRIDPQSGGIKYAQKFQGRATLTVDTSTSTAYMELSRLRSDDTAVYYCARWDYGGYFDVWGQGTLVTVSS VL: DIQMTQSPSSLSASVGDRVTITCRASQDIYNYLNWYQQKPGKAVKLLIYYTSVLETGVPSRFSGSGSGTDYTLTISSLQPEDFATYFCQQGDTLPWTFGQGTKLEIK strictly below 0.06 nM?
label 0

Is the reported Kd for 62BLH (Fab, V domains shown, also called 14BLM Fab) VH: EVQLVQSGAEVKKPGASVKVSCKASGYTFTSYDTHWVRQAPGQGLEWMGRIDPQSGGIKYAQKFQGRATLTVDTSTSTAYMELSRLRSDDTAVYYCARWDYGGYFDVWGQGTLVTVSS VL: DIQMTQSPSSLSASVGDRVTITCRASQDIYNYLNWYQQKPGKAVKLLIYYTSYLETGVPSRFSGSGSGTDYTLTISSLQPEDFATYFCQQGDTLPWTFGQGTKLEIK strictly below 0.06 nM?
label 0

Is the reported Kd for 61BLH (Fab, V domains shown, also called 13BLM Fab) VH: EVQLVQSGAEVKKPGASVKVSCKASGYTFTSYDMHWVRQAPGQGLEWMGRIDPQTGDIKYAQKFQGRATLTVDTSTSTAYMELSRLRSDDTAVYYCARWDYGGQFDVWGQGTLVTVSS VL: DIQMTQSPSSLSASVGDRVTITCRASQDIYNYLNWYQQKPGKAVKLLIYYTSGLETGVPSRFSGSGSGTDYTLTISSLQPEDFATYFCQQGDTLPWTFGQGTKLEIK strictly below 0.06 nM?
label 1

Is the reported Kd for 59BLH (Fab, V domains shown, also called 11BLM Fab) VH: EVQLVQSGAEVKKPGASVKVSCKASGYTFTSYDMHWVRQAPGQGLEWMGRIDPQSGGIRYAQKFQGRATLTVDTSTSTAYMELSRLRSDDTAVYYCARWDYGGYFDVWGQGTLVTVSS VL: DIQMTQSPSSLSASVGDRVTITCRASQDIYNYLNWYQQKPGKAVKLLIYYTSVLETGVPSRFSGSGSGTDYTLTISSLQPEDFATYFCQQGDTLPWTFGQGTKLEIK strictly below 0.06 nM?
label 0
